kon values, listed per item
System: T1, native human ApoC3 (human, UniProt P02656 21-99)
T1 construct: also called nhuApoC3; native huApoC3
T1 sequence (P02656 21-99): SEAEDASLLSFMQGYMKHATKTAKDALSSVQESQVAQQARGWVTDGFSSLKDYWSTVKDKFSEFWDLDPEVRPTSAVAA
Assay Method Text: SPR, ApoC3 over captured IgG1, pH 7.4
Return type: number; implicit unit M⁻¹ s⁻¹.

q: Sample mAb8 (antibody, IgG1, V domains shown, Produced as full length IgG1 (kappa) in ExpiCHO-S cells; also called humanized anti-ApoC3 antibody mAb8) VH: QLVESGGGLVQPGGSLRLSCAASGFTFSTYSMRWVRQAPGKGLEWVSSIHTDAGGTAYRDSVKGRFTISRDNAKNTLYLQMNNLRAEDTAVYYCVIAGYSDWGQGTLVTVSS VL: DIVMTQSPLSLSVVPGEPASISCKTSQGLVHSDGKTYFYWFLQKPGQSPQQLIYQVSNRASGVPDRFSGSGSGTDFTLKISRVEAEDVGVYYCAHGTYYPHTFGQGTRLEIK — what was its kon?
a: 32100

q: Sample mAb20 (antibody, IgG1, V domains shown, Produced as full length IgG1 (kappa) in ExpiCHO-S cells; also called humanized anti-ApoC3 antibody mAb20) VH: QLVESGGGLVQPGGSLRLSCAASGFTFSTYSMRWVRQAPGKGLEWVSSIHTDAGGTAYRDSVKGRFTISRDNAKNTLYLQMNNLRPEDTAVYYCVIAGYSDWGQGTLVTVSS VL: DIVMTQSPGSLSVTPGEPASISCKTSQGLVHSGGKTYFYWFLQKPGQSPQQLIYQVSNRASGVPDRFTGSGSGTDFTLKISGVEAEDAGVYYCAHGTYYPHTFGQGTRLEIK — what was its kon?
a: 55100

q: Sample mAb9 (antibody, IgG1, V domains shown, Produced as full length IgG1 (kappa) in ExpiCHO-S cells; also called humanized anti-ApoC3 antibody mAb9) VH: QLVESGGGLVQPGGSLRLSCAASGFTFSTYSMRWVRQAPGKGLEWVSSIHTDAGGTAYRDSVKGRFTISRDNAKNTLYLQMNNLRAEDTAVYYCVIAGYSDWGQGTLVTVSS VL: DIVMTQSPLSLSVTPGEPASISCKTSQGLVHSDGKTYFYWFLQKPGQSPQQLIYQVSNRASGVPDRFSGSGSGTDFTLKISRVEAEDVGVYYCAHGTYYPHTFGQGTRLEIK — what was its kon?
a: 28800
